- Tested system: glycine binding site of the NMDA receptor (Rattus norvegicus)
- Protocol summary: 1 μM glycine-stimulated [^3 H]-MK801 binding assay (glycine binding assay)
- Details: DCK = 5,7-dichlorokynurenic acid
Measured potency relative to DCK, listed per entry for reference.

// worked examples, potency relative to DCK included
> print(dat)
                                   compound  reported.result
1    O=C1Nc2ccccc2C(=O)C1=NO [Compound 17a]     1.3 % of DCK
2  CC(=O)ON=C1C(=O)Nc2cc(Cl)cc(Cl)c2C1=O [Compound 18b]     142 % of DCK

stdin: Which potency relative to DCK value is on record for O=C1Nc2ccccc2C(=NO)C1=O [Compound 14a] ?
stdout: 14 % of DCK

stdin: How about this compound: O=C1Nc2cc(Cl)c(Cl)cc2C(=O)C1=NO [Compound 17c]
stdout: 439 % of DCK

stdin: Same for O=C1Nc2cc(Cl)cc(Cl)c2C(=O)C1=NO [Compound 17b]
stdout: 1126 % of DCK
